- procedure_text: log P by HPLC on reversed-phase (C18) columns, OECD Guideline 117
- Format: physicochemical
- experimental_context: reversed-phase (C18) HPLC column; neutral range, pH 7.8, 0.001 molar aqueous ammonium hydrogencarbonate solution and acetonitrile as eluents; read-out: logP [b]
observation_type: chromatographic logP
Output spec: single numeric token, no unit.

The cases that follow already have their chromatographic logP on record.
compound: c1ccc(-c2cc3sc(-c4cccnc4)nc3cn2)nc1
chromatographic logP: 2.38

compound: Cc1ccc(-c2cc3sc(-c4cccnc4)nc3cn2)cc1SCC(F)(F)F
chromatographic logP: 4.21

Request: Endpoint output: chromatographic logP of "Cc1cc(F)c(-c2cc3sc(-c4cccnc4)nc3cn2)cc1SCC(F)(F)F" . Value?
Response: 4.41

Request: For "FC(F)(F)c1cc2sc(-c3cccnc3)nc2cn1" , what is its reported chromatographic logP?
Response: 2.32

Request: Quick one: chromatographic logP of "c1cncc(-c2nc3cnc(N4CCOCC4)cc3s2)c1" ?
Response: 1.94

Request: Give the measured chromatographic logP of "c1cncc(-c2nc3cnc(N4CCCC4)cc3s2)c1" .
Response: 2.61

Request: Reported chromatographic logP for Cc1ccc(-c2cc3sc(-c4cccnc4)nc3cn2)cc1[S+]([O-])CC(F)(F)F (stereo not drawn) : what is it?
Response: 2.74

Request: Please give the measured chromatographic logP for this compound: "FC(F)(F)c1ccn(-c2cc3sc(-c4cccnc4)nc3cn2)n1"
Response: 3.68

Request: Which chromatographic logP value belongs to Cc1cc(F)c(-c2cc3sc(-c4cccnc4)nc3cn2)cc1[S+]([O-])CC(F)(F)F (stereo not drawn) ?
Response: 2.77

* * *

- procedure_text: log P by HPLC on reversed-phase (C18) columns, OECD Guideline 117
- Assay type: physicochemical
- experimental_context: reversed-phase (C18) HPLC column; acidic range, pH 2.7, 0.1% aqueous formic acid and acetonitrile as eluents; read-out: logP [a]
chromatographic logP under 2 gets yes (1), anything at or over 2 gets no (0).

given_smiles: O=C(Nc1cccc(S(=O)(=O)C(F)(F)F)c1)c1cc2sc(-c3cccnc3)nc2cn1
label_class: no (0)

Request: Dear reviewer, please state whether "CCN(C)C(=O)c1cc2sc(-c3cccnc3)nc2cn1" has chromatographic logP strictly beneath 2.
Response: yes (1)

Request: Report whether reported chromatographic logP is lower than 2 (strictly) for "CS(=O)(=O)CCNC(=O)c1cc2sc(-c3cccnc3)nc2cn1"
Response: yes (1)

Request: Lab log: compare recorded chromatographic logP with 2; is it strictly lower for "CNC(=O)c1cc2sc(-c3cccnc3)nc2cn1" ?
Response: yes (1)

Request: Take the compound "FC(F)(F)c1ccn(-c2cc3sc(-c4cccnc4)nc3cn2)n1" and say whether its chromatographic logP is less than 2.
Response: no (0)
